Cited source: patent US9169254B2

# system: UniProt Q03431
# protocol notes: In vitro cAMP signal activity in HKRK-B7 cells (LLC-PK1 cells overexpressing the human PTH1 receptor)
# Assay type: cell-based
# details: HKRK-B7 cells; compound at 1×10^−3 M; cAMP produced as percentage of that produced by hPTH(1-34) at 100 nM
Structures can show the parent of a compound that is named as a salt.
Form field: cAMP production activity (%) (one value per entry).

[
  {
    "molecule": "Cc1cc(N2C(=O)CNC2=O)ccc1/C=C/S(=O)(=O)N1CCC2(CC1)N=C(c1cccc(OC(F)(F)F)c1)NC2=O",
    "cAMP production activity (%)": 121
  },
  {
    "molecule": "Cc1cc(N(C)C(N)=O)cc(C)c1/C=C/S(=O)(=O)N1CCC2(CC1)N=C(C1CCC(CCC(F)(F)F)CC1)NC2=O (stereo not drawn)",
    "cAMP production activity (%)": 95
  },
  {
    "molecule": "Cc1cc(C(=O)N2CCC(N)C2)ccc1CCS(=O)(=O)N1CCC2(CC1)N=C(c1cccc(C(F)(F)F)c1)NC2=O (stereo not drawn) [Compound 445, hydrochloride]",
    "cAMP production activity (%)": 83
  }
]

###

# system: human PTH1 receptor (Homo sapiens, UniProt Q03431)
# Sequence (Q03431 27-593): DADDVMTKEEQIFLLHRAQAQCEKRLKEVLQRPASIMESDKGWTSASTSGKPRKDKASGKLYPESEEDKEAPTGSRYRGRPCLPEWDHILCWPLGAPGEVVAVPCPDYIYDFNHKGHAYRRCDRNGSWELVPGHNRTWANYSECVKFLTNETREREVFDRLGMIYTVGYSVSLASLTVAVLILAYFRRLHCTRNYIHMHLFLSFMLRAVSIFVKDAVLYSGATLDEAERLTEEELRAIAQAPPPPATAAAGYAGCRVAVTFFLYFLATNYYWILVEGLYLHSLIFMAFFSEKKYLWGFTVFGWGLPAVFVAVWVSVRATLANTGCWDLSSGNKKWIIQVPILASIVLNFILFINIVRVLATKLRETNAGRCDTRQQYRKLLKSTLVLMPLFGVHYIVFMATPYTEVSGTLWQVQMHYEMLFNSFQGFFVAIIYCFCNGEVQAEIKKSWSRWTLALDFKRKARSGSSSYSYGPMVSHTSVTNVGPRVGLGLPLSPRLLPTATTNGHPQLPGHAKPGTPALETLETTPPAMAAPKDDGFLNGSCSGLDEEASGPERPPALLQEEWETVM
# protocol notes: In vitro cAMP signal activity in HKRK-B7 cells (LLC-PK1 cells overexpressing the human PTH1 receptor)
# Type: cell-based
# details: HKRK-B7 cells; compound at 1×10^−3 M; cAMP produced as percentage of that produced by hPTH(1-34) at 100 nM
Label Y for high-side cAMP production activity (%) (at or above 70%) and N for low-side cAMP production activity (%) (below it).

[
  {
    "compound": "Cc1cc(N2C(=O)CNC2=O)ccc1CCS(=O)(=O)N1CCC2(CC1)N=C(C1CCC(CCC(F)(F)F)CC1)NC2=O (stereo not drawn) [Compound 943]",
    "discrete label": "Y"
  },
  {
    "compound": "O=C(OCc1ccccc1)N1CCCC(C2=NC3(CCN(S(=O)(=O)c4cccc(Cl)c4)CC3)C(=O)N2)C1 (stereo not drawn) [Compound 461]",
    "discrete label": "N"
  },
  {
    "compound": "[2H]C([2H])([2H])C([2H])([2H])C([2H])([2H])C([2H])([2H])Oc1ccc(C2=NC3(CCN(S(=O)(=O)/C=C/c4c(C)cc(C(=O)N5CCC(O)(CF)CC5)cc4C)CC3)C(=O)N2)cc1C(F)(F)F [Compound 1261]",
    "discrete label": "Y"
  },
  {
    "compound": "Cc1cc(N(C)C(N)=O)cc(C)c1CCS(=O)(=O)N1CCC2(CC1)N=C(c1ccc3c(c1)OC(F)(F)O3)NC2=O [Compound 1029]",
    "discrete label": "Y"
  },
  {
    "compound": "CC1(C2=NC3(CCN(S(=O)(=O)c4cccc(Cl)c4)CC3)C(=O)N2)CCCCC1 [Compound 14]",
    "discrete label": "N"
  }
]

###

# system: human PTH1 receptor (Homo sapiens, UniProt Q03431)
# protocol notes: In vitro cAMP signal activity in HKRK-B7 cells (LLC-PK1 cells overexpressing the human PTH1 receptor)
# Format: cell-based
# details: HKRK-B7 cells; compound at 1×10^−3 M; cAMP produced as percentage of that produced by hPTH(1-34) at 100 nM

[
  {
    "compound": "O=C1NC(C2CCCCC2)=NC12CCN(S(=O)(=O)CCc1ccc3[nH]c(=O)sc3c1)CC2 [Compound 663]",
    "unit string": "%",
    "cAMP production activity (%)": 27
  },
  {
    "compound": "[2H]C([2H])([2H])C([2H])([2H])Oc1cc(C2=NC3(CCN(S(=O)(=O)/C=C/c4c(C)cc(C(=O)N5CCC(C)(O)CC5)cc4C)CC3)C(=O)N2)ccc1F [Compound 1224]",
    "unit string": "%",
    "cAMP production activity (%)": 88
  },
  {
    "compound": "CC1CCC(C2=NC3(CCN(S(=O)(=O)CCc4cccc5[nH]ccc45)CC3)C(=O)N2)CC1 (stereo not drawn) [Compound 306]",
    "unit string": "%",
    "cAMP production activity (%)": 45
  }
]

###

Form field: cAMP production activity (%) (one value per entry).
# system: human PTH1 receptor (Homo sapiens, UniProt Q03431)
# protocol notes: In vitro cAMP signal activity in HKRK-B7 cells (LLC-PK1 cells overexpressing the human PTH1 receptor)
# Type: cell-based
# details: HKRK-B7 cells; compound at 1×10^−3 M; cAMP produced as percentage of that produced by hPTH(1-34) at 100 nM

[
  {
    "molecule": "CN(C(=O)c1cccc(C2=NC3(CCN(S(=O)(=O)c4cccc(Cl)c4)CC3)C(=O)N2)c1)c1ccccc1 [Compound 349]",
    "system": "human PTH1 receptor (Homo sapiens, UniProt Q03431)",
    "unit string": "%",
    "cAMP production activity (%)": 11
  },
  {
    "molecule": "Cc1cc(C(=O)N2CCC(O)CC2)cc(C)c1/C=C/S(=O)(=O)N1CCC2(CC1)N=C(c1cccc(OCCCC(F)(F)C(F)(F)F)c1)NC2=O [Compound 1158]",
    "system": "human PTH1 receptor (Homo sapiens, UniProt Q03431)",
    "unit string": "%",
    "cAMP production activity (%)": 103
  },
  {
    "molecule": "Cc1cc(CN2C(=O)CCC2=O)cc(C)c1/C=C/S(=O)(=O)N1CCC2(CC1)N=C(C1CCC(CCC(F)(F)F)CC1)NC2=O (stereo not drawn) [Compound 557]",
    "system": "human PTH1 receptor (Homo sapiens, UniProt Q03431)",
    "unit string": "%",
    "cAMP production activity (%)": 50
  },
  {
    "molecule": "[2H]C([2H])([2H])C([2H])([2H])C1=CC[C@H](C2=NC3(CCN([S@TB18](=O)(=O)/C=C/c4c(C)cc(N(C)C(N)=O)cc4C)CC3)C(=O)N2)CC1 [Compound 1129]",
    "system": "human PTH1 receptor (Homo sapiens, UniProt Q03431)",
    "unit string": "%",
    "cAMP production activity (%)": 102
  },
  {
    "molecule": "CCCc1ccc(-c2cccc(C3=NC4(CCN(S(=O)(=O)/C=C/c5c(C)cc(N(C)C(N)=O)cc5C)CC4)C(=O)N3)c2)cc1 [Compound 1114]",
    "system": "human PTH1 receptor (Homo sapiens, UniProt Q03431)",
    "unit string": "%",
    "cAMP production activity (%)": 95
  },
  {
    "molecule": "CNc1cc(C)c(/C=C/S(=O)(=O)N2CCC3(CC2)N=C(c2cccc(SC(F)(F)F)c2)NC3=O)c(C)c1 [Compound 1016]",
    "system": "human PTH1 receptor (Homo sapiens, UniProt Q03431)",
    "unit string": "%",
    "cAMP production activity (%)": 92
  }
]

###

# system: human PTH1 receptor (Homo sapiens)
# protocol notes: In vitro cAMP signal activity in HKRK-B7 cells (LLC-PK1 cells overexpressing the human PTH1 receptor)
# Format: cell-based
# details: HKRK-B7 cells; compound at 1×10^−3 M; cAMP produced as percentage of that produced by hPTH(1-34) at 100 nM
Label satisfied for high-side cAMP production activity (%) (at or above 50%) and not satisfied for low-side cAMP production activity (%) (below it).

[
  {
    "compound": "CC1(C)OC[C@H](Cn2cc(F)c3c(/C=C/S(=O)(=O)N4CCC5(CC4)N=C(C4CCCCC4)NC5=O)cccc32)O1",
    "system": "human PTH1 receptor (Homo sapiens)",
    "discrete label": "not satisfied"
  },
  {
    "compound": "CCCCCCCCCC1=NC2(CCN(S(=O)(=O)/C=C/c3c(C)cc(C(=O)O)cc3C)CC2)C(=O)N1",
    "system": "human PTH1 receptor (Homo sapiens)",
    "discrete label": "not satisfied"
  },
  {
    "compound": "Cc1cc(N(CCOCCO)C(N)=O)cc(C)c1/C=C/S(=O)(=O)N1CCC2(CC1)N=C(C1CCC(CCC(F)(F)F)CC1)NC2=O (stereo not shown)",
    "system": "human PTH1 receptor (Homo sapiens)",
    "discrete label": "satisfied"
  },
  {
    "compound": "Cc1cc(N2C(=O)NC(C)C2=O)cc(C)c1/C=C/S(=O)(=O)N1CCC2(CC1)N=C(C1CCC(C)CC1)NC2=O (stereo not shown)",
    "system": "human PTH1 receptor (Homo sapiens)",
    "discrete label": "satisfied"
  },
  {
    "compound": "Cc1cc(CN2CCCC2=O)cc(C)c1/C=C/S(=O)(=O)N1CCC2(CC1)N=C(C1CCC(C)CC1)NC2=O (stereo not shown)",
    "system": "human PTH1 receptor (Homo sapiens)",
    "discrete label": "not satisfied"
  },
  {
    "compound": "Cc1cc(N2CCC(=O)NC2=O)cc(C)c1/C=C/S(=O)(=O)N1CCC2(CC1)N=C(C1CCC(C)CC1)NC2=O (stereo not shown)",
    "system": "human PTH1 receptor (Homo sapiens)",
    "discrete label": "satisfied"
  },
  {
    "compound": "CC(=O)N(CC1(C)COC1)c1cc(C)c(/C=C/S(=O)(=O)N2CCC3(CC2)N=C(C2CCCCC2)NC3=O)c(C)c1",
    "system": "human PTH1 receptor (Homo sapiens)",
    "discrete label": "not satisfied"
  }
]
